target: cap-dependent endonuclease (RNP fraction containing PB1•PB2•PA complex) (Influenza A virus, UniProt P15659); test: biochemical; conditions: RNP from A/WSN/33 virus, capped Cy3/BHQ2 30mer RNA substrate, 60 minutes at room temperature; read-out: CEN IC50
pIC50 by entry:
Here pIC50 is given on a logarithmic scale as minus log10 of the concentration in mol/L.

# annotated cases, reported pIC50 shown
> print(dat)
                                   compound  measuredattribute  resultnumber
1  CC(CCO)N1CN(C(c2ccccc2)c2ccccc2)n2ccc(=O)c(O)c2C1=O (centres unmarked)              pIC50          6.53
2  O=C1c2c(O)c(=O)ccn2N(C2c3ccccc3CCc3ccccc32)C(CO)N1CCO (centres unmarked)              pIC50          7.19
3  CC(C)N1CN(C2c3cc(F)ccc3CSc3ccc(F)cc32)n2ccc(=O)c(O)c2C1=O (centres unmarked)              pIC50          7.55
4  COCCN1CN(C(c2ccccc2)c2ccccc2)n2cc(C(=O)O)c(=O)c(O)c2C1=O              pIC50          7.02
5  COC[C@H](C)N1C(=O)c2c(O)c(=O)ccn2N(C2c3ccccc3CCc3ccccc32)[C@@H]1CO              pIC50          7.64

Exam item: Fill blank: measured pIC50 of the compound C[C@H](N1CN([C@@H]2c3ccccc3SCc3c(Cl)cccc32)n2ccc(=O)c(O)c2C1=O)C(F)(F)F is ____.
Marked response: 6.91

Exam item: Fill blank: measured pIC50 of the compound O=C1c2c(O)c(=O)ccn2N(C2c3ccccc3CSc3ccccc32)CN1[C@@H]1C[C@@H]1F (some centres unmarked) is ____.
Marked response: 7.11

Exam item: Fill blank: measured pIC50 of the compound C[C@@H](N1CN([C@H]2c3ccccc3SCc3c(F)cccc32)n2ccc(=O)c(O)c2C1=O)C(F)(F)F is ____.
Marked response: 7.89

----------
biological target: cap-dependent endonuclease (RNP fraction containing PB1•PB2•PA complex) (Influenza A virus); assay: biochemical; settings: RNP from A/WSN/33 virus, capped Cy3/BHQ2 30mer RNA substrate, 60 minutes at room temperature; read-out: CEN IC50
measuredAttribute: IC50 (nM)
Give the value, in units of nM, as a plain number.

Exam item: Fill blank: measured IC50 of the molecule Cc1ccc2c(c1)C(N1CN(C(C)C)C(=O)c3c(O)c(=O)ccn31)c1ccccc1CS2 (stereo not shown) is ____.
Marked response: 138

Exam item: Fill blank: measured IC50 of the molecule C[C@@H](N1CN([C@@H]2c3ccccc3SCc3c(Br)cccc32)n2ccc(=O)c(O)c2C1=O)C(F)(F)F is ____.
Marked response: 12

Exam item: Fill blank: measured IC50 of the molecule COCCN1CN(C2c3ccccc3CSc3cc(F)ccc32)n2ccc(=O)c(O)c2C1=O (stereo not shown) is ____.
Marked response: 58

----------
pIC50 by entry:
molecular target: cap-dependent endonuclease (RNP fraction containing PB1•PB2•PA complex) (Influenza A virus, UniProt P15659); assay: biochemical; conditions: RNP from A/WSN/33 virus, capped Cy3/BHQ2 30mer RNA substrate, 60 minutes at room temperature; read-out: CEN IC50
Here pIC50 is given on a logarithmic scale as minus log10 of the concentration in mol/L.

# annotated cases, reported pIC50 shown
> print(dat)
                                   compound  resultnumber
1  O=C1c2c(O)c(=O)ccn2N(C2c3ccccc3CCc3ccccc32)CN1Cc1nccs1          7.14
2  Cc1nnc(CN2CN(C3c4ccccc4CSc4ccccc43)n3ccc(=O)c(O)c3C2=O)o1 (stereo not shown)          7.28
3  C[C@@H](N1CN([C@@H]2c3ccccc3SCc3c(Cl)cccc32)n2ccc(=O)c(O)c2C1=O)C(F)(F)F          7.52

As a next step, examine the compound that follows.
Exam item: Fill blank: measured pIC50 of the compound CC(C)N1CN(C2c3ccccc3NC(=O)c3ccccc32)n2ccc(=O)c(O)c2C1=O (stereo not shown) is ____.
Marked response: 6.52
